B1: Hairpin Ribozyme (parent)
chain: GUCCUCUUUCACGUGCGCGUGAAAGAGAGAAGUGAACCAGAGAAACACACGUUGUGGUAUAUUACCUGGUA

- Variants of: B1
- ASSAY OVERVIEW: self-cleavage, relative activity (ratio to wild type); higher = more cleavage; co-transcriptional
Class yes: self-cleavage at least 0.2. Class no: self-cleavage below 0.2.

>>> category("C10U G40C")
"no"
>>> category("C6U C16G")
"yes"
>>> category("G56C G57U")
"no"
>>> category("A44U C48U")
"no"
>>> category("C4A U63A")
"no"
>>> category("A36G C46A")
"no"
>>> category("A24C A47C")
"yes"
>>> category("A28U U33C")
"no"
>>> category("C12A A28C")
"yes"
>>> category("C12U A26G")
"yes"
>>> category("C6G A44C")
"no"
>>> category("U20G C65G")
"no"
>>> category("C18G U67A")
"yes"
>>> category("U55G A64U")
"no"
>>> category("G32U G34C")
"no"
>>> category("A31G G42C")
"yes"
>>> category("A11C A47C")
"yes"
>>> category("A47G C48G")
"no"
>>> category("C37A U63G")
"no"
>>> category("G17A A49C")
"yes"
>>> category("C10G U52A")
"yes"
>>> category("G51A G69C")
"yes"
>>> category("U7C C46A")
"yes"
>>> category("A39U A71C")
"yes"
